Test: Cytotoxicity assay (MTT), U87
Format: cell-based, human
Details: human, U87-MG glioblastoma cells; U87 cells; 72 h; MTT; mean ± SEM (n = 3)
experimental-endpoint: CC50 at 72 h (µM)
Value expressed in µM; do not type the unit.

input: Find the measured CC50 at 72 h of CCCNC(=O)CSSCC(=O)N1CCOCC1 [Compound 12a] and report it.
output: 187

----------
Biological target: TrxR1 (Rattus norvegicus)
Sequence (O89049 whole entry): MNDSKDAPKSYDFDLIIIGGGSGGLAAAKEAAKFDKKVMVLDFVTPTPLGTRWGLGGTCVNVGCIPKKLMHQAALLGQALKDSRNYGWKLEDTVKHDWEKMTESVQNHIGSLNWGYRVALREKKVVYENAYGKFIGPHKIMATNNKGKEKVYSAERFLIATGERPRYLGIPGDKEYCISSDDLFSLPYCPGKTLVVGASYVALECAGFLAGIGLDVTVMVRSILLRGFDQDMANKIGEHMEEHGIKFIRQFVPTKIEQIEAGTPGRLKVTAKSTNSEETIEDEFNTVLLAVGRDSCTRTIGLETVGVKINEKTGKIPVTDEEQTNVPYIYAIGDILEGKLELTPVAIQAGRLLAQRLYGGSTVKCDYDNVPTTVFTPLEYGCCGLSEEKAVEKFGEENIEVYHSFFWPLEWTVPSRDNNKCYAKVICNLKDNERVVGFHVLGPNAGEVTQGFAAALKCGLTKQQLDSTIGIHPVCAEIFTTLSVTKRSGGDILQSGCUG
Assay: TrxR inhibition assay (DTNB), rat liver (hepatocyte) lysate
Details: TrxR IC50 Hepatocyte lysate, mean ± SEM (n = 3)
pIC50: −log10 of the molar value.
experimental-endpoint: pIC50

input: Let me know recorded pIC50 for COC(=O)CSSCC(=O)Nc1ccc(F)cc1 [Compound 13a] , thanks.
output: < 3.70

input: Give reported pIC50 value for COC(=O)CSSCC(=O)OC [Compound 17, Dimethyl 2,2′-disulfanediyldiacetate]
output: < 3.70

input: Give a short answer stating reported pIC50 for O=C(O)CSSCC(=O)O [Compound 14, 2,2′-disulfanediyldiacetic acid, reference compound] .
output: < 3.70

----------
Molecular target: TrxR1 (Homo sapiens)
Construct: For TrxR assay, lysate from SH-SY5Y cells and rat liver were used; endogenous in cells
Sequence (Q16881 151-649 limits assumed): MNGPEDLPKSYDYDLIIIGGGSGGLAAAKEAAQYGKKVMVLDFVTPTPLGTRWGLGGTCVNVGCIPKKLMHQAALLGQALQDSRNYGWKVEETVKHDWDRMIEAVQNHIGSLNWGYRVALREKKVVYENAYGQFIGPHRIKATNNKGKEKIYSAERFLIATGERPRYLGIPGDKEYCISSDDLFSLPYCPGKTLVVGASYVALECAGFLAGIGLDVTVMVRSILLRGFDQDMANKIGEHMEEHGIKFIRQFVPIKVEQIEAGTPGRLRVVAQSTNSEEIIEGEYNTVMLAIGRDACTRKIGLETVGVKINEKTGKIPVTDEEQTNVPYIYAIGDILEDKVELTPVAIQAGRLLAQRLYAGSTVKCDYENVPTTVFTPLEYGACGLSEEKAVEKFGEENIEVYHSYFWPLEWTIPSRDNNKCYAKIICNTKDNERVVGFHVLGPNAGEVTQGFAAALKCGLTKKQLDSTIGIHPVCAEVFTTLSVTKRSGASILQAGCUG
Test: TrxR inhibition assay (DTNB), SH-SY5Y cell lysate
Conditions: neuroblastoma (SHSY5Y) lysate, mean ± SEM (n = 3)
pIC50: −log10 of the molar value.
experimental-endpoint: pIC50

input: // fetch pIC50 given entry O=C(CSSCC(=O)N1CCCC1)N1CCCC1 [Compound 11a]
output: < 3.70

input: Provide one value: measured pIC50 of CC(C)(C)NC(=O)CSSCC(=O)NC(C)(C)C [Compound 11g]
output: < 3.70

input: Determine its reported pIC50: O=C(CSSCC(=O)Nc1ccc(F)cc1)Nc1ccc(F)cc1 [Compound 11h]
output: < 3.70
